Tested on: U-251
Test: NCI tumour cell line growth inhibition, 48 h
Active and inactive are the calls of the source. Cut-off read from the data, not from the text of the source: active = GI50 up to about 1.1 µM and inactive = higher.
Write down the outcome that applies. Available outcomes: True for active, False for inactive

Problem: What call does the record list for COc1cccc2c1C(=O)c1c(O)c3c(c(O)c1C2=O)C[C@@](O)(C(C)=O)C[C@@H]3OC1CC([N+]([O-])(Cc2ccccc2)Cc2ccccc2)C(O)C(C)O1 (stereo partly drawn) ?
Result: False

Problem: Note, next up: Cc1ccc(/C=C/C(=O)CCN(C)C)cc1
Result: False

Problem: Note, next up: Cc1cn([C@H]2C[C@](C)(CO)N(C)O2)c(=O)[nH]c1=O
Result: False

Problem: Note, next up: COC(=O)[C@H](Cc1c[nH]c2ccccc12)NC(=O)c1ccc(CNC(=O)/C(C)=C/c2ccccc2)cc1
Result: False

Problem: Note, next up: CCCCCCCCCCNC(=S)OC
Result: False

Problem: Note, next up: c1ccc2c3nnc(c2c1)SCCCSc1nnc(c2ccccc12)SCCCS3
Result: False

Problem: Note, next up: Cc1cc(N(CCC#N)CCC#N)ccc1/C=C1/N=C(c2ccccc2)N(N)C1=O
Result: False

Problem: Note, next up: CN(C)c1ccc(C(N)=O)cn1
Result: False

Problem: Note, next up: COc1ccc(/C=C/C=C2C(=O)NC(=S)NC2=O)cc1
Result: False

Problem: Note, next up: C/C(=N/O)C1CC=C(S(=O)(=O)c2ccccc2)C1 (stereo not drawn)
Result: False

Problem: Note, next up: N#CCc1nc(-c2cc3c(ccc4ccccc43)oc2=O)cs1
Result: False

Problem: Note, next up: CCCCC1(C2c3ccccc3Oc3ccccc32)C(=O)N(c2ccccc2)N(c2ccccc2)C1=O
Result: False

Problem: Note, next up: CCCCCCCCCC[C@@H](O)[C@H]1CC[C@H]([C@H]2CC[C@H]([C@H](O)CCCCCCCCCC[C@@H]3CC(CC(C)=O)C(=O)O3)O2)O1 (stereo partly drawn)
Result: False

Problem: Note, next up: CNCCN[C@@H]1c2cc3c(cc2[C@@H](c2cc(OC)c(O)c(OC)c2)[C@H]2C(=O)OC[C@@H]21)OCO3
Result: True

Problem: Note, next up: Cn1c2c(c3ccccc31)CCN1C(=O)CN(C(=O)C3CCCCC3)CC21 (stereo not drawn)
Result: False

Problem: Note, next up: CC(=O)c1cc([N+](=O)[O-])ccc1OCC(=O)O
Result: False

Problem: Note, next up: CC(=O)c1c(SCCN2CCCCCC2)n(-c2ccccc2)c(=S)n(-c2ccccc2)c1=O
Result: False

Problem: Note, next up: N#C/C(=C\c1ccc(F)cc1)c1nc(-c2cc3ccccc3oc2=O)cs1
Result: False

Problem: Note, next up: c1cc(C[S+]2CCCC2)sc1C[S+]1CCCC1
Result: False

Problem: Note, next up: O=C1c2ccccc2C(=O)c2c1cc(S(=O)(=O)O)c(O)c2O
Result: False

Problem: Note, next up: CN1C(=O)C(=O)c2cc3c(c4c2c1cc1ccccc14)OCO3
Result: False

Problem: Note, next up: COc1ccc(C2c3cc4c(cc3OC(N3CCOCC3)C2C)OCO4)cc1 (stereo not drawn)
Result: False

Problem: Note, next up: CCOC(=O)/C(C(=O)c1ccc[nH]1)=C1/CCCN1C
Result: False

Problem: Note, next up: COC1C(O)C(O[C@H]2CC[C@@]3(C)C(CC[C@@H]4[C@@H]3CC[C@]3(C)[C@@H](C(C)OC5OC(CO)C(O)C(O)C5O)CC[C@]43O)C2)OC(C)C1OC1OC(CO)C(O)C(O)C1O (stereo partly drawn)
Result: False

Problem: Note, next up: CC1(C)OC[C@@H]([C@@]2(COC(c3ccccc3)(c3ccccc3)c3ccccc3)CC=CC(=O)O2)O1
Result: False

Problem: Note, next up: CCCCCCCCCCCCCCCCNc1ccn(C2CC(OP(=O)(O)OCC3OC(n4cc(CC)c(=O)[nH]c4=O)CC3O)C(CO)O2)c(=O)n1 (stereo not drawn)
Result: False

Problem: Note, next up: O=C(c1cccs1)N1CCN(C(=O)c2cccs2)C1=S
Result: False

Problem: Note, next up: CC1=C(c2cc(C(=O)Nc3ccc(Cl)cc3)nc(S)n2)Sc2ccccc2N1
Result: False

Source: ChEMBL document CHEMBL1201862
